The measurements presented in this section are drawn from patent US20230263822A1.

tested on: human Factor 11 mRNA; experiment: Dose-dependent inhibition of human Factor 11 in HepG2 cells, electroporation 0.7-20 uM (Example 4); assay type: cell-based; details: 20 μM, relative to untreated control cells
Strand notation (5' to 3'): a small letter for the sugar, then the base; units joined by * are phosphorothioate-linked, units joined directly phosphodiester-linked; [ ] holds rarer units or linkages, { } end groups; capitals alone tell only the bases. e = 2'-O-(2-methoxyethyl) (MOE); [5mC] = 5-methylcytosine; d = 2'-deoxy (DNA)
# binarize percent inhibition of Factor 11 at 20 μM: threshold 90% inclusive, high side Fulfilled, low side Not fulfilled

Answered cases to consult:
416989 (antisense eG*eA*dG*dA*dT*dT*d[5mC]*dT*dT*dT*dG*dG*dG*d[5mC]*d[5mC]*eA*eT*eT*e[5mC]*e[5mC]) [compound 416989]; Fulfilled
416985 (antisense eG*e[5mC]*dA*dA*d[5mC]*d[5mC]*dG*dG*dG*dA*dT*dG*dA*dT*dG*eA*eG*eT*eG*e[5mC]) [compound 416985]; Not fulfilled
416926 (antisense eT*eG*eG*dT*dG*d[5mC]*dA*d[5mC]*dA*dG*dT*dT*dT*d[5mC]*dT*dG*dG*e[5mC]*eA*eG) [compound 416926]; Fulfilled
416973 (antisense eT*eT*dA*dT*dG*d[5mC]*d[5mC]*d[5mC]*dT*dT*d[5mC]*dA*dT*dG*dT*e[5mC]*eT*eA*eG*eG) [compound 416973]; Fulfilled
412206 (antisense e[5mC]*e[5mC]*eG*eT*eG*d[5mC]*dA*dT*d[5mC]*dT*dT*dT*d[5mC]*dT*dT*eG*eG*e[5mC]*eA*eT) [compound 412206]; Fulfilled
416925 (antisense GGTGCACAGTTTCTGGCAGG; 3-14-3 gapmer chemistry, further chemistry not given here) [compound 416925]; Not fulfilled
413476 (antisense eT*eT*eG*eA*eG*dA*dT*dT*d[5mC]*dT*dT*dT*dG*dG*dG*e[5mC]*e[5mC]*eA*eT*eT) [compound 413476]; Fulfilled

Moving on to another substance below.
Is percent inhibition of Factor 11 at 20 μM at least 90%? Consider 416826 (antisense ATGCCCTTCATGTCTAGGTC; 5-10-5 gapmer, further chemistry not given here) [compound 416826] Not fulfilled
